target: GlcNAc(b1-3)Gal(b1-4)GlcNAc(b1-3)Gal(b1-4)GlcNAc(b1-2)Man(a1-3)[GlcNAc(b1-3)Gal(b1-4)GlcNAc(b1-3)Gal(b1-4)GlcNAc(b1-2)Man(a1-6)]Man(b1-4)GlcNAc(b1-4)[Fuc(a1-6)]GlcNAc; test: glycan array binding signal (z-score within array); higher = stronger binding; conditions: glycan notation: IUPAC condensed, linker removed
The sample as a whole holds a higher share of the strongest signals than the screen did.
property_measured: glycan array binding signal (z-score)
Answers are plain numbers.

Past entries and their recorded results:
AFL6 (Aspergillus fumigatus), Q4WKJ1 (protein) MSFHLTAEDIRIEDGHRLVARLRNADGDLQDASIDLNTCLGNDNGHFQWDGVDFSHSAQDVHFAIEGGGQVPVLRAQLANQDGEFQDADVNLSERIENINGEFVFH
2.48
CBM40 CPF071 (Clostridium perfringens) (protein) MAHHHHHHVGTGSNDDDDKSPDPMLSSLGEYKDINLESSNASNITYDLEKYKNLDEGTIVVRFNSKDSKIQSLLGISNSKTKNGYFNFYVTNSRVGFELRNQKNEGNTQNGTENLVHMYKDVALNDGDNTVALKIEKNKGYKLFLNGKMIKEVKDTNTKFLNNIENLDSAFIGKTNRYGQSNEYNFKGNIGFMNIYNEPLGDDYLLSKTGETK
-0.411

Alright, here's another binder for you.
# binder CBP21 (Serratia marcescens), O83009 (protein) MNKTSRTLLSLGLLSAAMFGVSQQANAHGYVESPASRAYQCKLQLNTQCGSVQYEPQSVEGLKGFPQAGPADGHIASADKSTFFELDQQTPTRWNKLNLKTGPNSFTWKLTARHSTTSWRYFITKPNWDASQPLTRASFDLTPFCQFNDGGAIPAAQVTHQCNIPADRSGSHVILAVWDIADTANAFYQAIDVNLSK ; its glycan array binding signal (z-score) = 3.08
